Test: Selectivity ratio of IC50 for human L02 cells to IC50 for antiproliferative activity against human NCI-H1975 cells
Format: toxicity, cell-based
Conditions: L02 cells versus NCI-H1975 cells, read-out: Ratio IC50
observed property: selectivity ratio
Give the value as a plain number.

Quick note, selectivity ratio for C=CC(=O)Nc1cc(Nc2nccc(-c3cn(C4CC4)c4ccccc34)n2)c(OC)cc1[S+]([O-])CCN(C)C (stereo unspecified) landed at 584

====

Assay: MRT in Sprague-Dawley rat at 10 mg/kg, po administered as single dose
Format: ADME, organism-based
Conditions: in vivo
Give MRT for every item shown.
Give the value, in units of h, as a plain number.

C=CC(=O)Nc1cc(Nc2nccc(-c3cn(C)c4ccccc34)n2)c(OC)cc1[S+]([O-])CCN(C)C (configuration not stated) yielded MRT of 2.07

The recorded MRT for entry C=CC(=O)Nc1cc(Nc2nccc(-c3cn(C4CC4)c4ccccc34)n2)c(OC)cc1[S+]([O-])CCN(C)C (configuration not stated) equals 3.61
